As shown below, each of these compounds has a reported growth value.
tested on: PC-3 prostate; assay: NCI-60 one-dose screen, 48 h (100 = growth as untreated, 0 = no growth, -100 = all killed); conditions: 10 µM unless noted
The panel holds about 83,000 compounds, 20% with a hit somewhere; the sample as a whole holds those more often.
Give the value, in units of %, as a plain number.

Answered examples (3):
1) N#Cc1c(NC(=O)NCc2ccccc2)sc2c1CCCC2 26.9
2) Cc1nc2sccn2c1-c1nc2sccn2c1/C=C1/C(=O)Nc2ccccc21 28.7
3) O=C(Cc1ccc(/C=C/C(=O)c2nccs2)cc1)Nc1ccccc1 91.7

Which measured growth value corresponds to Cc1ccc(NC(=O)c2cc(-c3nc4ccccc4s3)c(=O)n(NS(=O)(=O)c3ccc(Cl)cc3)c2N)cc1 ?
100

Values compiled from PubChem BioAssay (NCI).
